Attribution: paper PMC5540273

Recorded %Inh by entry
Tested on: EPHB3;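 further: KINOMEscan kinase panel screen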
Conditions: concentration: 1 μM, replicates: in singlicate; n = 1
Measured property: %Inh

>>> print(df.to_string())
                                    molecule  endpoint_value
 0  COc1cccc(-c2nc(-c3ccccc3)[nH]c2-c2ccncc2)c1             24%
 1  CN(c1ccc(F)c(NC(=O)c2cccc(OC(C)(C)C#N)c2Cl)c1)c1ccc2nc(NC(=O)C3CC3)sc2n1              0%
 2  CS(=O)(=O)c1cccc(CNc2nc(Nc3ccc4c(c3)CCC(=O)N4)ncc2C(F)(F)F)c1              0%
 3          Cc1cccc(Nc2nc(NCCN)ncc2C(N)=O)c1              0%
 4  Cc1ccc(-c2ccc3occ(-c4ccc(S(C)=O)cc4)c3c2)nn1 (stereo not drawn)             14%
 5  CCNc1nccc(-c2c(-c3ccc(F)cc3)ncn2C2CCN(C)CC2)n1              0%
 6  COc1cccc2c(-c3ccncc3)c(-c3ccc(F)cc3)nn12             38%
 7               CCn1cnc2c(NCc3ccccc3)ncnc21              0%
 8  Cc1nn2c(=O)cc(N3CCO[C@H](C)C3)nc2n1Cc1cccc(Cl)c1Cl              0%
 9     Cc1ccc(O)cc1Nc1ccnc2ccc(C(C)(C)C)cc12            100%
10                     CN(C)c1ncnc2nc[nH]c12              0%
11  Cl.Cl.NCC(NC(=O)c1cc(-c2cccnc2)c(-c2ccnc3[nH]ccc23)s1)c1ccccc1 (stereo not drawn)              0%
12  Fc1cc(Cl)ccc1Nc1ccnc2cc(-c3ccc(CN4CCSCC4)o3)ccc12              0%
13  COc1ccc(C2=C(Nc3cccc(O)c3)C(=O)NC2=O)cc1              5%
14  COc1ccc(C)c(Nc2ccnc(Nc3ccc(-c4cnc[nH]4)cc3)n2)c1.Cl             17%
15  Cc1cccc(Nc2nc(N[C@H]3CCCC[C@H]3N)ncc2C(N)=O)c1.Cl             15%
16  CC(C)c1nc(-c2ccc(F)c(NS(=O)(=O)c3c(F)cccc3F)c2)c(-c2ccnc(Nc3ccc(N4CCOCC4)nc3)n2)s1             24%
17  Cl.Cl.NC(CNC(=O)c1cc(Br)c(-c2ccnc3[nH]ccc23)s1)c1ccccc1 (stereo not drawn)              0%
